Each entry below carries its recorded cell viability.
- Test system: P12-Ichikawa
- assayComment: cell viability relative to DMSO control; higher = less cytotoxic
- measurementSetup: HPLM + 10% dialyzed FBS; 48 h; 0.00702 µM
The figure you give is taken to be in %; do not add the unit.

Guide cases for cell viability, answers given:
query: What does the record list as cell viability for C[S+](=O)([O-])N(Cc1ccco1)CC(O)Cn1c2ccccc2c2ccccc21 (centres undefined) ?
result: 94.2

query: What does the record list as cell viability for CC(=O)N1CCN(c2ccc(OCc3nn(C)c(C)c3-c3cccc4c(CCCOc5cccc6ccccc56)c(C(=O)O)n(Cc5cccnc5)c34)cc2)CC1 ?
result: 123

query: What does the record list as cell viability for [NH2][Pt]([NH2])([Cl])[Cl] ?
result: 95.1

Next:
query: What does the record list as cell viability for CC(=O)C\1=C(/C)C2=CN=C(NC3=CC=C(C=N3)N4CCNCC4)N=C2N(C5CCCC5)C1=O ?
result: 119
